Target: Human GO (Homo sapiens)
Construct: purchased Novus Biologicals NBP1-72412
Sequence (Q9UJM8 1-370): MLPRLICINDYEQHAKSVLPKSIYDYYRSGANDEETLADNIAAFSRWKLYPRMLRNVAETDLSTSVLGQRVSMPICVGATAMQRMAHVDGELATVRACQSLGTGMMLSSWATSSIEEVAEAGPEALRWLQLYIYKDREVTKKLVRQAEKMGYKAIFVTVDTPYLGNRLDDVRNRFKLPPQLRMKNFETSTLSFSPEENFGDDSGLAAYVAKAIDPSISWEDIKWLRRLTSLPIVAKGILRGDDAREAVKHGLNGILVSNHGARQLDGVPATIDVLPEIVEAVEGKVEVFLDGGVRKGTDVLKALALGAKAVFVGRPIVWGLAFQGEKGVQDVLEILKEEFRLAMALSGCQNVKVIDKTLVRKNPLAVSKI
Test: GO enzymatic assay (coupled fluorescence/HRP assay, glycolate substrate)
Format: biochemical
Recorded IC50 values for a group of molecules are listed next.

molecule | IC50
CS(=O)(=O)c1ccc(-c2ccc(Oc3[nH]nnc3C(=O)O)cc2)cc1 [Compound 401, 2,2,2-trifluoroacetate] | < 100 nM

query: Value lookup for IC50; key = O=C(O)c1[nH]nnc1-c1ccc(-c2ccc(OC(F)(F)F)cc2)cc1
result: 100 to 1000 nM

query: Also check O=C(O)c1[nH]nnc1Oc1ccc(Cl)c(Cl)c1
result: < 100 nM

query: Also check O=C(O)c1[nH]nnc1-c1ccc(Cl)c(Cl)c1
result: < 100 nM

====

Target: Human GO (Homo sapiens)
Construct: purchased Novus Biologicals NBP1-72412
Test: GO enzymatic assay (coupled fluorescence/HRP assay, glycolate substrate)
Assay type: biochemical
Settings: Table 2; read-out: Range (range of IC50 values calculated from the enzymatic assays)
pIC50: −log10 of the molar value.
measurement-kind: pIC50

Before answering, review these 3 worked examples.
compound | pIC50
O=C(O)c1[nH]nnc1COc1ccc(Cl)c(Cl)c1 [Compound 264, 2,2,2-trifluoroacetate] | > 7.00
O=C(O)c1[nH]nnc1Sc1ccc(-c2ccc(N3CCC(F)(F)CC3)cc2)cc1 [Compound 319, 2,2,2-trifluoroacetate] | > 7.00
O=C(O)c1[nH]nnc1Oc1ccc(-c2ccc(N3CCC(F)(F)CC3)cc2)cc1 [Compound 297, 2,2,2-trifluoroacetate] | > 7.00

Please turn your attention to the following entry.
query: Please tell me: pIC50 of O=C(O)c1[nH]nnc1OC1CCN(c2ccc3cnccc3c2)CC1 [Compound 260, 2,2,2-trifluoroacetate] , system Human GO (Homo sapiens)?
result: 6.00 to 7.00

====

Recorded IC50 values for a group of molecules are listed next.
Target: Human GO (Homo sapiens)
Construct: purchased Novus Biologicals NBP1-72412
Sequence (Q9UJM8 1-370): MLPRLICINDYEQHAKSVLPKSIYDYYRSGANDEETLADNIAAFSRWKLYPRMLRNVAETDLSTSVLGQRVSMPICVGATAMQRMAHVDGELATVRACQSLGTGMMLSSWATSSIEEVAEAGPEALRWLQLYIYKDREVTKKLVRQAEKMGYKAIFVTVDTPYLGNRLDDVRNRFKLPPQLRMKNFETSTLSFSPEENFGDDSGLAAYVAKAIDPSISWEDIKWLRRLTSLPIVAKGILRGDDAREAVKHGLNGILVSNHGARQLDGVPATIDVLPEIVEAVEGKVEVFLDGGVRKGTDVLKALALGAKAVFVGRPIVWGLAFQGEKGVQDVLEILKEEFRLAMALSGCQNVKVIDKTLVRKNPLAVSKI
Test: GO enzymatic assay (coupled fluorescence/HRP assay, glycolate substrate)
Type: biochemical
Conditions: Table 2; read-out: Range (range of IC50 values calculated from the enzymatic assays)
Method: Assay 1: GO Enzymatic Assay GO was incubated with its substrate, glycolate, in 50 mM potassium phosphate buffer, pH 7. […] The enzyme was optimized and the kinetics was determined. Compound inhibition was determined by adding various concentrations of inhibitors in the GO enzyme assay. […]

Before answering, review these 8 worked examples.
molecule | result
O=C(O)c1[nH]nnc1SC1CCN(c2cc(Cl)ccc2Cl)CC1 | < 100 nM
CCC(=O)OCOC(=O)c1[nH]nnc1OC1CCc2cc(Cl)c(Cl)cc2C1 (stereo not shown) | < 100 nM
O=C(O)c1[nH]nnc1SC1CCC(c2cccc(N3CCCCC3)c2)CC1 (stereo not shown) [Compound 340, 2,2,2-trifluoroacetate] | < 100 nM
O=C(O)c1[nH]nnc1SC1CCN(c2cc(Cl)cc(Cl)c2)CC1 [Compound 325, 2,2,2-trifluoroacetate] | < 100 nM
O=C(O)c1[nH]nnc1-c1cc2cc(OC(F)(F)F)ccc2cn1 | 1000 to 10000 nM
CCC(=O)OCOC(=O)c1[nH]nnc1Sc1ccc(-c2ccc(N3CCCCC3)cc2)cc1 [Compound 313, 2,2,2-trifluoroacetate] | 1000 to 10000 nM
CN1CCN(c2ccc([C@H]3CC[C@@H](Sc4nn[nH]c4C(=O)O)CC3)cc2)CC1 [Compound 341, 2,2,2-trifluoroacetate] | < 100 nM
O=C(O)c1[nH]nnc1CSc1ccc(Cl)c(Cl)c1 | < 100 nM

query: Please tell me: IC50 of CC(C)C(=O)OCOC(=O)c1[nH]nnc1-c1ccc2cc(Cl)ccc2n1 , system Human GO (Homo sapiens)?
result: 1000 to 10000 nM

query: Also check CN1CCN(c2cccc(-c3ccc(Oc4nn[nH]c4C(=O)O)cc3)c2)CC1 [Compound 246, 2,2,2-trifluoroacetate]
result: 100 to 1000 nM

====

Target: Human GO (Homo sapiens)
Construct: purchased Novus Biologicals NBP1-72412
Assay: GO enzymatic assay (coupled fluorescence/HRP assay, glycolate substrate)
Format: biochemical
Conditions: Table 2; read-out: Range (range of IC50 values calculated from the enzymatic assays)
measurement-kind: IC50

compound | IC50
O=C(OCOC(=O)C1CCCCC1)c1[nH]nnc1Sc1ccc(-c2ccc(N3CCCCC3)cc2)cc1 [Compound 317, 2,2,2-trifluoroacetate] | > 10000 nM

Please turn your attention to the following entry.
query: Value lookup for IC50; key = O=C(O)c1[nH]nnc1CNc1ccc2cc(Cl)ccc2c1 [Compound 178, 2,2,2-trifluoroacetate]
result: < 100 nM

====

Recorded pIC50 values for a group of compounds are listed next.
Target: Human GO (Homo sapiens, UniProt Q9UJM8)
Construct: purchased Novus Biologicals NBP1-72412
Sequence (Q9UJM8 1-370): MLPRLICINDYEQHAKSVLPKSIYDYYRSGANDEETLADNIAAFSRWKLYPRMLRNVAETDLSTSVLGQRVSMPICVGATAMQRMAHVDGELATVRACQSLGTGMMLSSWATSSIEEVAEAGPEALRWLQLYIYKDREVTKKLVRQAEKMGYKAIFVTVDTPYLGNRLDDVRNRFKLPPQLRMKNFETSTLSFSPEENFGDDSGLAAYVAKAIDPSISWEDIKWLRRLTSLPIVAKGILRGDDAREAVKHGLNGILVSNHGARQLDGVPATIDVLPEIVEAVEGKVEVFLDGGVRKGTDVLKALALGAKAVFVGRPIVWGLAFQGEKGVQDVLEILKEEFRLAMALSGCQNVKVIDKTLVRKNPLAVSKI
Test: GO enzymatic assay (coupled fluorescence/HRP assay, glycolate substrate)
Assay type: biochemical
Details: Table 2; read-out: Range (range of IC50 values calculated from the enzymatic assays)
pIC50: −log10 of the molar value.

compound | pIC50
O=C(O)c1[nH]nnc1Oc1cccc(OC2CC2)c1 [Compound 253, 2,2,2-trifluoroacetate] | > 7.00
O=C(O)c1[nH]nnc1Oc1ccc(-c2ccc3cccnc3c2)cc1 [Compound 250, 2,2,2-trifluoroacetate] | > 7.00
O=C(O)c1[nH]nnc1Sc1ccc(Cl)c(OC(F)(F)F)c1 | > 7.00

query: Value lookup for pIC50; key = O=C(O)c1[nH]nnc1OC1CCN(c2cc(Cl)cc(OC(F)(F)F)c2)CC1
result: > 7.00

query: Also check O=C(O)c1[nH]nnc1Sc1cc(OCC2CCCC2)ccc1Cl
result: > 7.00

====

Target: Human GO (Homo sapiens)
Construct: purchased Novus Biologicals NBP1-72412
Assay: GO enzymatic assay (coupled fluorescence/HRP assay, glycolate substrate)
Format: biochemical
Conditions: Table 3; read-out: Range (range of IC50 values calculated from the enzymatic assays)
measurement-kind: IC50

Before answering, review these 4 worked examples.
compound | experimental-system | measurement-kind | result
O=C(O)c1[nH]nnc1CCN(Cc1ccc(Cl)cc1)Cc1ccc(-c2ccc(OC(F)(F)F)cc2)cc1 [Compound 374, 2,2,2-trifluoroacetate] | Human GO (Homo sapiens) | IC50 | 100 to 1000 nM
O=C(O)c1[nH]nnc1OC(CCc1ccccc1)c1ccccc1 (centres unmarked) [Compound 296] | Human GO (Homo sapiens) | IC50 | > 10000 nM
O=C(O)c1[nH]nnc1OC(Cc1ccc(Cl)cc1)Cc1ccc(Cl)cc1 [Compound 294] | Human GO (Homo sapiens) | IC50 | < 100 nM
O=C(O)c1[nH]nnc1OC(Cc1ccc(-c2ccc(OC(F)(F)F)cc2)cc1)Cc1ccc(-c2ccc(OC(F)(F)F)cc2)cc1 [Compound 366] | Human GO (Homo sapiens) | IC50 | 100 to 1000 nM

Please turn your attention to the following entry.
query: Value lookup for IC50; key = O=C(O)c1[nH]nnc1CCN(Cc1ccc(Cl)cc1)Cc1ccc(Cl)cc1 [Compound 372, 2,2,2-trifluoroacetate]
result: 100 to 1000 nM
